Assay: Pharmacokinetic studies of the protegrin conjugates, single IV dose
Type: in vivo, Sprague-Dawley rats
Settings: male, Sprague-Dawley, rat, in vivo; protegrin-1 in plasma; equivalent protein mass 1.6 mg/kg IV, rats; native or via releasable PEG conjugate
value-type: Tmax (min)
Answers are plain numbers, in min.

Which Tmax value belongs to `CC(C)C[C@H](NC(=O)[C@H](CCCNC(=N)N)NC(=O)CNC(=O)CNC(=O)[C@@H](N)CCCNC(=N)N)C(=O)N[C@H]1CSSC[C@@H](C(=O)N[C@H](C(=O)NCC(=O)N[C@@H](CCCNC(=N)N)C(N)=O)C(C)C)NC(=O)[C@H](C(C)C)NC(=O)[C@@H]2CSSC[C@H](NC(=O)[C@H](Cc3ccc(O)cc3)NC1=O)C(=O)N[C@@H](CCCNC(=N)N)C(=O)N[C@@H](CCCNC(=N)N)C(=O)N[C@@H](CCCNC(=N)N)C(=O)N[C@@H](Cc1ccccc1)C(=O)N2` ?
1.8
